run description: in vivo
experimental parameters: Balb/c nu/nu, mouse, tumour / muscle, 48 pmol, total radioactivity

| molecule | tissue to tissue ratio at 1 h |
| --- | --- |
| CC1=NNC(c2ccc(CNC(=O)c3ccc(F)nc3)cc2)=C2CCC[C@H](OC(=O)NCCOCCOCCC(=O)N[C@H](Cc3ccccc3)C(=O)N[C@@H](CCC(N)=O)C(=O)N[C@@H](Cc3c[nH]c4ccccc34)C(=O)N[C@@H](C)C(=O)N[C@H](C(=O)NCC(=O)N[C@@H](Cc3c[nH]cn3)C(=O)N[C@@H](CC(C)C)[C@@H](O)CC(=O)N[C@@H](CC(C)C)C(N)=O)C(C)C)CCC12 (stereo partly shown) [8a] | 7.4 |

Each recorded value in this set is attributed to paper PMC11947346.
